Listing of entries alongside the reported Ki.
# measuredTarget: D2-like dopamine receptors (Rattus norvegicus)
# Construct: Striatal tissue from the brains of male Charles River CD rats; from tissue; host or cells: rat striatum (male Charles River CD rats), crude membrane pellet
# Sequence (P61169 whole entry): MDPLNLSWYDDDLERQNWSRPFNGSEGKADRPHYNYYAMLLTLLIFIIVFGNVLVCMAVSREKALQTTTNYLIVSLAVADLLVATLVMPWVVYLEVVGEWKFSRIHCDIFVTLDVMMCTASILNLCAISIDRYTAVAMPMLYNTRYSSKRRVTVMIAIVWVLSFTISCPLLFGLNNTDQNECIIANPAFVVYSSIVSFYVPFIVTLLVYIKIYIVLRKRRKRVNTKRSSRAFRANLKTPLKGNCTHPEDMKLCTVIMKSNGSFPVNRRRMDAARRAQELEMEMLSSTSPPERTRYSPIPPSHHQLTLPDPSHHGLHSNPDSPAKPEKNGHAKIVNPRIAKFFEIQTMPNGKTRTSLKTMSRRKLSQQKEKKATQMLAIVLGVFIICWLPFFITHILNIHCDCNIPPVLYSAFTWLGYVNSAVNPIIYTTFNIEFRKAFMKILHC
# test: inhibition of tritiated (S)-sulpiride binding to D2-like dopamine receptors, rat striatal tissue
# Parameters: species or system male Charles River CD rats
# experimentalParameters: 4° C., 40 minutes, pH 7.7
reportedEndpoint: Ki

[[record]]
compound = "O=S(=O)(c1ccccn1)N1CCC(CNC[C@H]2COc3ccc(Cl)cc3O2)CC1 [Example 2, hydrate]"
measuredtarget = "D2-like dopamine receptors (Rattus norvegicus)"
reportedendpoint = "Ki"
endpointresult = "27.9 nM"

[[record]]
compound = "O=S(=O)(NCC1CCN(C[C@H]2COc3ccc(Cl)cc3O2)CC1)c1ccc(F)cc1"
measuredtarget = "D2-like dopamine receptors (Rattus norvegicus)"
reportedendpoint = "Ki"
endpointresult = "69.8 nM"

[[record]]
compound = "COc1ccc(OC)c(S(=O)(=O)NCC2CCN(C[C@H]3COc4ccc(Cl)cc4O3)CC2)c1"
measuredtarget = "D2-like dopamine receptors (Rattus norvegicus)"
reportedendpoint = "Ki"
endpointresult = "285 nM"

[[record]]
compound = "Cc1cc(C)c(S(=O)(=O)NCC2CCN(C[C@H]3COc4ccc(Cl)cc4O3)CC2)c(C)c1"
measuredtarget = "D2-like dopamine receptors (Rattus norvegicus)"
reportedendpoint = "Ki"
endpointresult = "249 nM"


###

# measuredTarget: 5-HT1A (Rattus norvegicus, UniProt P19327)
# Construct: Hippocampal tissue from the brains of male Charles River CD rats; from tissue; host or cells: rat hippocampus (male Charles River CD rats), crude membrane pellet
# Sequence (P19327 whole entry): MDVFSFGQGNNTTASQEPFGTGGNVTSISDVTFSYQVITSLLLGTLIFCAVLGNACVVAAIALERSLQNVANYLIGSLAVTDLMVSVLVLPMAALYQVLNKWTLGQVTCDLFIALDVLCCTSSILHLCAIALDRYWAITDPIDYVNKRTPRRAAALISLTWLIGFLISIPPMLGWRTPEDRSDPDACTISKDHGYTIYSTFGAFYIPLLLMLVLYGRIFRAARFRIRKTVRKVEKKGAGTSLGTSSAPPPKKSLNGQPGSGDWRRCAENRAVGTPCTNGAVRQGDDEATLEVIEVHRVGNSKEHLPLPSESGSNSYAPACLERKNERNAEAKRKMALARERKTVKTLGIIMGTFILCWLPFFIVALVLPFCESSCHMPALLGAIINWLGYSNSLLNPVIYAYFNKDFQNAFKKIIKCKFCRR
# test: inhibition of tritiated ligand ([3H]8-OH-DPAT) binding to 5-HT1A receptors, rat hippocampal tissue
# Set-up: species or system male Charles River CD rats
# experimentalParameters: at 10^-6 M, read-out: % displacement of specific binding, 5-HT1A
reportedEndpoint: inhibition at 1 µM (%)

[[record]]
entrysmiles = "O=S(=O)(NCC1CCN(C[C@H]2COc3ccc(Cl)cc3O2)CC1)c1ccc(F)c(Cl)c1"
endpointresult = 80

[[record]]
entrysmiles = "O=S(=O)(NCC1CCN(C[C@H]2COc3ccc(Cl)cc3O2)CC1)c1cccc(C(F)(F)F)c1"
endpointresult = 68

[[record]]
entrysmiles = "O=S(=O)(NCC1CCN(C[C@H]2COc3ccc(Cl)cc3O2)CC1)c1ccc(OC(F)(F)F)cc1"
endpointresult = 67

[[record]]
entrysmiles = "Cc1ccc(S(=O)(=O)NCC2CCN(C[C@H]3COc4ccc(Cl)cc4O3)CC2)cc1"
endpointresult = 91

[[record]]
entrysmiles = "O=S(=O)(NCC1CCN(C[C@H]2COc3ccc(Br)cc3O2)CC1)c1ccccc1F"
endpointresult = 97

[[record]]
entrysmiles = "O=S(=O)(NCC1CCN(C[C@H]2COc3ccc(Cl)cc3O2)CC1)c1ccc(F)c(F)c1F"
endpointresult = 95

[[record]]
entrysmiles = "Cc1c([N+](=O)[O-])cc(S(=O)(=O)NCC2CCN(C[C@H]3COc4ccc(Cl)cc4O3)CC2)cc1[N+](=O)[O-]"
endpointresult = 88

[[record]]
entrysmiles = "O=[N+]([O-])c1ccccc1S(=O)(=O)NCC1CCN(C[C@H]2COc3ccc(Cl)cc3O2)CC1"
endpointresult = 87

[[record]]
entrysmiles = "O=[N+]([O-])c1cccc(S(=O)(=O)NCC2CCN(C[C@H]3COc4ccc(Cl)cc4O3)CC2)c1"
endpointresult = 91

[[record]]
entrysmiles = "CCN(CC)c1cccc2c(S(=O)(=O)NCC3CCN(C[C@H]4COc5ccc(Cl)cc5O4)CC3)cccc12"
endpointresult = 82

[[record]]
entrysmiles = "O=S(=O)(NCC1CCN(C[C@H]2COc3cc4c(cc3O2)OCO4)CC1)c1cccc(Cl)c1Cl"
endpointresult = 77

[[record]]
entrysmiles = "O=S(=O)(NCC1CCN(C[C@H]2COc3ccc(Br)cc3O2)CC1)c1ccccc1Cl"
endpointresult = 96

[[record]]
entrysmiles = "O=S(=O)(NCC1CCN(C[C@H]2COc3ccc(Cl)cc3O2)CC1)c1ccc(C(F)(F)F)cc1Cl"
endpointresult = 88

[[record]]
entrysmiles = "O=S(=O)(NCC1CCN(C[C@H]2COc3ccc(Cl)cc3O2)CC1)c1cc(OCC(F)(F)F)ccc1OCC(F)(F)F"
endpointresult = 84

[[record]]
entrysmiles = "O=S(=O)(NCC1CCN(C[C@H]2COc3ccc(Cl)cc3O2)CC1)c1ccc2ccccc2c1"
endpointresult = 65

[[record]]
entrysmiles = "O=S(=O)(NCC1CCN(C[C@H]2COc3ccc(Cl)cc3O2)CC1)c1ccc(C(F)(F)F)cc1"
endpointresult = 90

[[record]]
entrysmiles = "Cc1cc(C)c(S(=O)(=O)NCC2CCN(C[C@H]3COc4ccc(Cl)cc4O3)CC2)c(C)c1"
endpointresult = 71

[[record]]
entrysmiles = "O=S(=O)(NCC1CCN(C[C@H]2COc3ccc(Cl)cc3O2)CC1)c1ccccc1"
endpointresult = 87

[[record]]
entrysmiles = "Cc1ccc(F)cc1S(=O)(=O)NCC1CCN(C[C@H]2COc3ccc(Cl)cc3O2)CC1"
endpointresult = 81

[[record]]
entrysmiles = "O=S(=O)(NCC1CCN(C[C@H]2COc3ccc(Cl)cc3O2)CC1)c1ccccc1Cl"
endpointresult = 93

[[record]]
entrysmiles = "O=S(=O)(NCC1CCN(C[C@H]2COc3ccc(Cl)cc3O2)CC1)c1c(F)c(Br)cc(F)c1Br"
endpointresult = 98

[[record]]
entrysmiles = "O=[N+]([O-])c1ccc(S(=O)(=O)NCC2CCN(C[C@H]3COc4ccc(Cl)cc4O3)CC2)c([N+](=O)[O-])c1"
endpointresult = 82

[[record]]
entrysmiles = "COc1ccc(OC)c(S(=O)(=O)NCC2CCN(C[C@H]3COc4ccc(Cl)cc4O3)CC2)c1"
endpointresult = 87

[[record]]
entrysmiles = "Cc1c(C)c(C)c(S(=O)(=O)NCC2CCN(C[C@H]3COc4ccc(Cl)cc4O3)CC2)c(C)c1C"
endpointresult = 59

[[record]]
entrysmiles = "O=S(=O)(NCC1CCN(C[C@H]2COc3ccc(Cl)cc3O2)CC1)c1ccccc1F"
endpointresult = 93

[[record]]
entrysmiles = "O=S(=O)(NCC1CCN(C[C@H]2COc3ccc(Cl)cc3O2)CC1)c1cc2nnoc2c2ccccc12"
endpointresult = 75

[[record]]
entrysmiles = "COc1ccc(Cl)cc1S(=O)(=O)NCC1CCN(C[C@H]2COc3ccc(Cl)cc3O2)CC1"
endpointresult = 68

[[record]]
entrysmiles = "COc1cc(C)c(S(=O)(=O)NCC2CCN(C[C@H]3COc4ccc(Cl)cc4O3)CC2)c(C)c1C"
endpointresult = 55


###

Listing of entries alongside the reported inhibition at 1 µM.
# measuredTarget: 5-HT1A (Rattus norvegicus)
# Construct: Hippocampal tissue from the brains of male Charles River CD rats; from tissue; host or cells: rat hippocampus (male Charles River CD rats), crude membrane pellet
# test: inhibition of tritiated ligand ([3H]8-OH-DPAT) binding to 5-HT1A receptors, rat hippocampal tissue
# Set-up: species or system male Charles River CD rats
# experimentalParameters: at 10^-6 M, read-out: % displacement of specific binding, 5-HT1A
reportedEndpoint: inhibition at 1 µM (%)

[[record]]
molecule = "O=S(=O)(NCC1CCN(C[C@H]2COc3ccc(Cl)cc3O2)CC1)c1ccc(I)cc1 [Example 18]"
unitofmeasurement = "%"
endpointresult = 90

[[record]]
molecule = "O=S(=O)(NCC1CCN(C[C@H]2COc3ccc(Br)cc3O2)CC1)c1ccc(F)c(Cl)c1 [Example 48]"
unitofmeasurement = "%"
endpointresult = 88

[[record]]
molecule = "O=S(=O)(NCC1CCN(C[C@H]2COc3ccc(Cl)cc3O2)CC1)c1cccc2ccccc12 [Example 31]"
unitofmeasurement = "%"
endpointresult = 60

[[record]]
molecule = "O=S(=O)(NCC1CCN(C[C@H]2COc3ccc(Cl)cc3O2)CC1)c1cc(Br)ccc1Br [Example 36]"
unitofmeasurement = "%"
endpointresult = 68


###

# measuredTarget: D2-like dopamine receptors (Rattus norvegicus)
# Construct: Striatal tissue from the brains of male Charles River CD rats; from tissue; host or cells: rat striatum (male Charles River CD rats), crude membrane pellet
# test: inhibition of tritiated (S)-sulpiride binding to D2-like dopamine receptors, rat striatal tissue
# Design: species or system male Charles River CD rats
# experimentalParameters: at 10^-6 M, read-out: % displacement of specific binding, D2-like
reportedEndpoint: inhibition at 1 µM

[[record]]
entrysmiles = "O=S(=O)(NCC1CCN(C[C@H]2COc3ccc(Br)cc3O2)CC1)c1ccccc1F"
endpointresult = "109%"

[[record]]
entrysmiles = "O=S(=O)(NCC1CCN(C[C@H]2COc3ccc(Br)cc3O2)CC1)c1ccc(F)c(Cl)c1"
endpointresult = "103%"

[[record]]
entrysmiles = "Cc1c([N+](=O)[O-])cc(S(=O)(=O)NCC2CCN(C[C@H]3COc4ccc(Cl)cc4O3)CC2)cc1[N+](=O)[O-]"
endpointresult = "87%"

[[record]]
entrysmiles = "O=S(=O)(NCC1CCN(C[C@H]2COc3cc4c(cc3O2)OCO4)CC1)c1cccc(Cl)c1Cl"
endpointresult = "89%"

[[record]]
entrysmiles = "O=S(=O)(NCC1CCN(C[C@H]2COc3ccc(Cl)cc3O2)CC1)c1ccccc1Cl"
endpointresult = "106%"

[[record]]
entrysmiles = "CCN(CC)c1cccc2c(S(=O)(=O)NCC3CCN(C[C@H]4COc5ccc(Cl)cc5O4)CC3)cccc12"
endpointresult = "83%"

[[record]]
entrysmiles = "O=S(=O)(NCC1CCN(C[C@H]2COc3ccc(Br)cc3O2)CC1)c1ccccc1Cl"
endpointresult = "106%"

[[record]]
entrysmiles = "O=S(=O)(NCC1CCN(C[C@H]2COc3ccc(Cl)cc3O2)CC1)c1ccc(F)c(Cl)c1"
endpointresult = "84%"

[[record]]
entrysmiles = "O=S(=O)(NCC1CCN(C[C@H]2COc3ccc(Cl)cc3O2)CC1)c1ccccc1F"
endpointresult = "107%"

